- Read-out: Monocyte Chemoattractant Protein-1 (MCP1), CCL2 (gene 6347)
- MEASUREMENT DESCRIPTION: BSK_LPS_MCP1: BioMAP Diversity Plus: LPS Assay for Monocyte Chemoattractant Protein-1 (MCP1) Biomarker Activity (AID 2283081)
- MEASUREMENT CONDITIONS: primary human HUVEC with PBMC; actives raise or lower the signal
Active and inactive are the calls of the source. Rule for the calls: active = hit-call score of the fitted dose curve at least 0.9, where 1 is the maximum; inactive = score below 0.9.
Entry note: the call must match one of yes (active), no (inactive)

Example entries and their recorded answers appear below.
1) Oc1cccc2cccnc12	no
2) COC(=O)Cc1ccccc1	no
3) COc1cc(OC)nc(NC(=O)NS(=O)(=O)c2ncccc2C(=O)N(C)C)n1	no
4) C[C@@H]1C[C@@H]([C@H](O)CC2CC(=O)NC(=O)C2)C(=O)[C@@H](C)C1	yes
5) CCOP(=S)(OCC)Oc1ccc(S(C)=O)cc1 (stereo not drawn)	no
6) ClC(Cl)=C(Cl)C(Cl)=C(Cl)Cl	no

Entry O=C(OC1CCCCC1)c1ccccc1C(=O)OC1CCCCC1 : call = ?
yes

Query COC[C@H](C)N(C(=O)CCl)c1c(C)csc1C next
no

Query Oc1c(I)cc(I)cc1I next
no

Query CN(C)N=O next
no

Query CC(C)(OO)c1ccccc1 next
no

Query Cc1ccccc1N next
no

Query O=C(O)CCC(F)(C(F)(F)F)C(F)(F)F next
no

Value source: PubChem BioAssay (EPA / NIEHS)
